- tgt: UniProtKB P00734
- method.description: Thrombin 1536 HTS Dose Response Confirmation. [Related pubchem assays: 1046 (Thrombin 1536 HTS; hits were confirmed in this assay)]
- Type: functional
Active and inactive are the calls of the source.
Collected IC50 values appear next to each entry.

Some solved cases for reference:
1) CC(=O)n1nc(-c2ccc(Cl)cc2)nc1NCc1ccco1 | 1.44 µM (active)
2) O=C(CSC1CCCCC1)Nc1nccs1 | > 50 µM (not active)
3) O=C1NC2(CCCCC2)NN1c1ccccc1 | > 50 µM (not active)
4) CCCC(=O)n1nc(-c2cccnc2)nc1NCc1cccs1 | 0.00426 µM (active)

Continue with the next compound.
Task item: # get_value(readout='IC50', item= NC(=O)c1ccsc1NC(=O)c1nc(-c2ccccc2)n(-c2ccccc2)n1 )
Reply: 4.3 µM (active)

----------
- tgt: Fatty acid synthase (Homo sapiens, UniProt P49327)
- Sequence (P49327 whole entry, the tested form may be a part): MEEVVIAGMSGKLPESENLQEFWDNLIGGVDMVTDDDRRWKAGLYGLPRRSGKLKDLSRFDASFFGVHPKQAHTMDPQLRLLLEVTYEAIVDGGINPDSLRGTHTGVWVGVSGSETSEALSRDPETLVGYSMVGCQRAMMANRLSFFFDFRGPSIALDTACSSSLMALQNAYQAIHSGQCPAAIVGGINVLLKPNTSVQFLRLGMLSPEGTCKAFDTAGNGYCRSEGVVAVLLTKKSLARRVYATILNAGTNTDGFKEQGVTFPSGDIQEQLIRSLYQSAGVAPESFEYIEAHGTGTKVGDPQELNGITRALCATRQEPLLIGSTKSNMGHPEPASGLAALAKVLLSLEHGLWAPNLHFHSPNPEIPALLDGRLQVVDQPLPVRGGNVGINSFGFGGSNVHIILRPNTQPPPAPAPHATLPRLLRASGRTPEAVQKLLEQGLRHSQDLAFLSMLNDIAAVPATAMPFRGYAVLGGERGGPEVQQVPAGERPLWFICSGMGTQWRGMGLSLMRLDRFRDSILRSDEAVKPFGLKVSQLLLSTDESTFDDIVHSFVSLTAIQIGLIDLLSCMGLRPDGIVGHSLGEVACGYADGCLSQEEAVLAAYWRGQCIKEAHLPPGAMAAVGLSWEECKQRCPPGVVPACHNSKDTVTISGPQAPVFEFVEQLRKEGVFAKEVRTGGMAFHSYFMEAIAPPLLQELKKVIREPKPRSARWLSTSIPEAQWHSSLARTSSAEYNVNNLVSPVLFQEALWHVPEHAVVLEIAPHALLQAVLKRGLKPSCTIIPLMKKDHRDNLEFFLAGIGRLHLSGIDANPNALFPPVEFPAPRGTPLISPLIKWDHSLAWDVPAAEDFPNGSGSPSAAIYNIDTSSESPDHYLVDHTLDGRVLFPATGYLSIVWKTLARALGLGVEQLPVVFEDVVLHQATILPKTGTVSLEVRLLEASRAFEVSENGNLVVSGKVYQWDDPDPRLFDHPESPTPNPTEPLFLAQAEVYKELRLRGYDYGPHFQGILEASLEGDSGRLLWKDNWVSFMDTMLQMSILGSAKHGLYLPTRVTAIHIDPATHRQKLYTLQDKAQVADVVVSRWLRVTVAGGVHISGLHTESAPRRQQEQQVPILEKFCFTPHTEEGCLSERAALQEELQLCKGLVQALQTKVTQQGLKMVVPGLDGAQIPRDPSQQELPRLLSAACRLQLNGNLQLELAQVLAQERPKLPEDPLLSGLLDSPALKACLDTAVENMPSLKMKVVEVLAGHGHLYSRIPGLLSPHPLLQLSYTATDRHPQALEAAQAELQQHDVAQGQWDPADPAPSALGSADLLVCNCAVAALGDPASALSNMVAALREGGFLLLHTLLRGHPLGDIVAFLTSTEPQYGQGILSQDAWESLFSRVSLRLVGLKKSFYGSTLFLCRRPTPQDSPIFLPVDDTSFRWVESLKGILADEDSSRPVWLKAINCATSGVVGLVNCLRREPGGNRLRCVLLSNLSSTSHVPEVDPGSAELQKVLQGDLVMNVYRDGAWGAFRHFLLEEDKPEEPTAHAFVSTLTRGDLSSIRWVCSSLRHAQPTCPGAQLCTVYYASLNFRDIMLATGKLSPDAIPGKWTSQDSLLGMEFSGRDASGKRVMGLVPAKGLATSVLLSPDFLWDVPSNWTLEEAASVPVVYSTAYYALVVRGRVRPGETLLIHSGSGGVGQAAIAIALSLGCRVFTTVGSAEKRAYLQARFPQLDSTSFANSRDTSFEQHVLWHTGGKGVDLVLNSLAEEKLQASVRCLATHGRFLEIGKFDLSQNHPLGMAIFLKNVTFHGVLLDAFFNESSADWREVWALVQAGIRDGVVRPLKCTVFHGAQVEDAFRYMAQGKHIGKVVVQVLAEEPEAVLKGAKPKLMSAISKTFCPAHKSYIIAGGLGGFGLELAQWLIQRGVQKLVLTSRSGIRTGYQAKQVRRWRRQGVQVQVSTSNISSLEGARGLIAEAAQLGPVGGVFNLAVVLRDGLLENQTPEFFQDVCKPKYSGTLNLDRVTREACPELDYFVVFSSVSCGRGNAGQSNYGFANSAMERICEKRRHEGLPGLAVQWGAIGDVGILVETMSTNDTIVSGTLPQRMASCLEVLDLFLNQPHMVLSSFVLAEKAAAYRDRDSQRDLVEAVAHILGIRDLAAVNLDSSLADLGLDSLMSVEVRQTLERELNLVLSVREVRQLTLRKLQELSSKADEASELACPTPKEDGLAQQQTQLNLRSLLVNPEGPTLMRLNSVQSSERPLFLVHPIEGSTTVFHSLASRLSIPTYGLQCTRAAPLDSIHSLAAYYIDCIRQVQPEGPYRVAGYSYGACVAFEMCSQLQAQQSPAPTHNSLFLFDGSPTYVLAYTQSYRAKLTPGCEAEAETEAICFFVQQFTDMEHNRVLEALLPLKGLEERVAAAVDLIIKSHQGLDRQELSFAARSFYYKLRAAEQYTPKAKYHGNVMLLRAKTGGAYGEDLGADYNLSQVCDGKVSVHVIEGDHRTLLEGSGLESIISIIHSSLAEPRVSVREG
- method.description: FAS thioesterase domain inhibitors, dose response, biochemical, kinetic fluorescence intensity (AID 624326);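 note: rate of fluorescence rise from hydrolysis of a fluorogenic O-methyl fluorescein ester substrate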
- Type: functional
Calls of active or inactive are those of the source.
Catalogue of molecules with associated IC50

1) O=C(O)CC(NC(=O)C(c1ccccc1)c1ccccc1)c1cccc([N+](=O)[O-])c1 (configuration not stated) | 7.4 µM (active)
2) C[C@H](NC(=O)c1[nH]cnc1C(=O)N[C@@H](CCCCNC(=O)OC(C)(C)C)C(=O)OC(C)(C)C)C(=O)OCc1ccccc1 | 0.176 µM (active)
3) Cc1cc(C)c(C#N)c(SCC(=O)c2ccc(Cl)cc2Cl)n1 | 4.77 µM (active)

Task item: Looking for the measured IC50 of Cc1cc(-c2ccccc2)nc(N/N=C/c2ccc([N+](=O)[O-])cc2)n1 , can you help?
Reply: 6.41 µM (active)

----------
- tgt: Corticotropin-releasing factor receptor 2/Corticotropin-releasing factor-binding protein (Homo sapiens, UniProt P24387+Q13324)
- Sequence (Q13324 whole entry): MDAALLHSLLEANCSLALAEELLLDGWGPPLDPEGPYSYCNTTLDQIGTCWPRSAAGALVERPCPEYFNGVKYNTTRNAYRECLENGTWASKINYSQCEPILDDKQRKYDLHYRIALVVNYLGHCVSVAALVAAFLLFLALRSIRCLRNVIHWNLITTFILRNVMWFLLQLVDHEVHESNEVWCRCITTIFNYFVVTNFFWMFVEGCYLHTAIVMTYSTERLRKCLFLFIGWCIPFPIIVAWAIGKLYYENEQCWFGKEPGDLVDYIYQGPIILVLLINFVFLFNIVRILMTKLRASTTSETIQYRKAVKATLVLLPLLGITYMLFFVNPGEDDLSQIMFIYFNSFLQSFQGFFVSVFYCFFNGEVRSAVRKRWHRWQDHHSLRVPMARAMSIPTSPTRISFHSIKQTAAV
- Sequence (P24387 whole entry): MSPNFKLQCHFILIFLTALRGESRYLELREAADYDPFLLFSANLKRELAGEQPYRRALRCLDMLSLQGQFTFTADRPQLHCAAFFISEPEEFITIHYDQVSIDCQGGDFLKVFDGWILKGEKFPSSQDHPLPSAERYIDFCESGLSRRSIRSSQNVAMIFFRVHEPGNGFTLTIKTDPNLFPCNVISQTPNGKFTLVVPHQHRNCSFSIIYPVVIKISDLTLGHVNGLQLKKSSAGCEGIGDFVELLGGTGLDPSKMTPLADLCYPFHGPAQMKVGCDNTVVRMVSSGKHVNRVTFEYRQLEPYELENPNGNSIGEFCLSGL
- method.description: activators of CRF receptor 2 with binding protein – uHTS hits, confirmation (AID 602473)
- Format: functional
- condition.parameters: read-out: EC50_Mean
Calls of active or inactive are those of the source.
measured.attribute: EC50

These recorded examples may help you get a feel for the data.
1. CC(C)(C)c1ccc(C(=O)CS(=O)(=O)c2ccccc2)cc1 | > 53 µM (inactive)
2. CC1(C)Cc2ccccc2C(c2cc3ccccc3oc2=O)=N1 | > 53 µM (inactive)
3. Cc1cccc(C(=O)NC(=S)NNC(=O)COc2c(C)cccc2C)c1 | 1.65 µM (active)
4. CCOc1ccc2nc(/N=C/c3nc(-c4ccccc4)oc3O)sc2c1 | 14.6 µM (active)
5. COc1cccc(CN2CCC(Oc3ccc(C(=O)NCc4ccccn4)cc3)CC2)c1O | > 53 µM (inactive)
6. C=CCOc1ccc(/C=C2\SC(=S)N(NS(=O)(=O)c3ccccc3)C2=O)cc1 | > 53 µM (inactive)
7. COc1ccccc1C(=O)COC(=O)c1c(-c2ccccc2)noc1C | > 53 µM (inactive)
8. COC(=O)COc1ccc(Oc2nc(SC)nc(N(C)C)n2)nn1 | > 53 µM (inactive)
9. COc1ccc(CNC(=O)C2(c3ccc(Cl)cc3)CC2)cc1 | > 53 µM (inactive)
10. COC(=O)c1cc2sc(Cl)cc2n1CC(=O)Nc1ccc(OC)c(OC)c1OC | > 53 µM (inactive)

# input for lookup
Task item: Consider the compound Cc1ccc(C(=O)N/N=C\c2ccccn2)cn1 and give its measured EC50.
Reply: > 53 µM (inactive)

meta.source: ChEMBL document CHEMBL1201862
